Protocol Description: In vitro plasma protein binding (ultrafiltration), mouse plasma
Type: in vitro ADME, mouse (CD-1)
Test Settings: CD-1, 10-10,000 ng/mL, mean±SD, read-out: mean unbound protein fraction (fu) in plasma
Readout Label: fraction unbound
Numbers only.

CN(C)c1cc(CNCC(C)(C)C)c(O)c2c1C[C@H]1C[C@H]3[C@H](N(C)C)C(O)=C(C(N)=O)C(=O)[C@@]3(O)C(O)=C1C2=O yielded fraction unbound of 0.847

----------
Protocol Description: Phase 1b study in female adults with cystitis, plasma PK
Format: in vivo, human
Test Settings: female, human, plasma, oral, 300 mg, plasma, Day 5, IV_PO300; read-out: Tmax, Median
Protocol: According to the study design, a randomized (1:1:1), open-label, parallel designed Phase 1b study comparing 3 dosing regimens of Compound 1 (9-[(2,2-dimethyl-propyl amino)-methyl-minocycline) in the treatment of female adults with cystitis was conducted. […] Blood samples were collected and analyzed for Compound 1 concentration at the following times. […]
Readout Label: Tmax (h)
One number for each entry, in h.

So for CN(C)c1cc(CNCC(C)(C)C)c(O)c2c1C[C@H]1C[C@H]3[C@H](N(C)C)C(O)=C(C(N)=O)C(=O)[C@@]3(O)C(O)=C1C2=O [Compound 1] , the logged Tmax turned out to be 3
